Data provenance is patent US7141564B2.

PROTOCOL_DETAILS: MIC of test compounds against various organisms
Type: cell-based
CONDITION_SET: versus all these organisms (panel of 10 strains); read-out: MIC
Where a name gives a salt, the structure may show the parent alone.
READOUT_NAME: MIC

Reference set, count: 10
[[record]]
molecule = "COc1ccc2nccc(NC(=O)[C@H]3CC[C@H](NCc4ccc5c(n4)NC(=O)CO5)CC3)c2n1 [Example 31, oxalate]"
assay_result = "≤ 4 µg/mL"

[[record]]
molecule = "COc1ccc2nccc(NC(=O)[C@]3(O)CC[C@@H](NCc4ccc5c(n4)NC(=O)CS5)CC3)c2n1 [Example 301, Dihydrochloride]"
assay_result = "≤ 4 µg/mL"

[[record]]
molecule = "COc1ccc2nccc(NC(=O)[C@H]3CC[C@H](NCc4cc5c(cc4F)OCC(=O)N5)CC3)c2n1 [Example 9, Dioxalate Salt]"
assay_result = "≤ 4 µg/mL"

[[record]]
molecule = "COc1ccc2nccc(NC(=O)[C@]3(O)CC[C@@H](NCc4nc5c(cc4Br)SCC(=O)N5)CC3)c2n1 [Example 304, Dihydrochloride]"
assay_result = "≤ 4 µg/mL"

[[record]]
molecule = "COc1ccc2nccc(NC(=O)[C@H]3CC[C@H](NCc4cnc5scnc5c4)CC3)c2n1 [Example 16, oxalate salt]"
assay_result = "≤ 16 µg/mL"

[[record]]
molecule = "COc1ccc2nccc(NC(=O)[C@H]3CC[C@H](NCc4ccc5c(c4)OCCO5)CC3)c2c1 [Example 11, fumarate salt]"
assay_result = "≤ 16 µg/mL"

[[record]]
molecule = "COc1cc(F)c2nccc(NC(=O)[C@]3(O)CC[C@@H](NCc4ccc5c(n4)NC(=O)CS5)CC3)c2c1 [Example 390, dihydrochloride]"
assay_result = "≤ 4 µg/mL"

[[record]]
molecule = "COc1ccc2nccc(NC(=O)[C@H]3CC[C@H](NCc4cnc5snnc5c4)CC3)c2n1 [Example 32, oxalate]"
assay_result = "≤ 4 µg/mL"

[[record]]
molecule = "COc1ccc2nccc(C(O)C[C@H]3CC[C@H](NCc4ccc5c(c4)OCCO5)CC3)c2c1 (stereo partly drawn) [Example 22, oxalate salt]"
assay_result = "≤ 16 µg/mL"

[[record]]
molecule = "COc1ccc2nccc(NC(=O)[C@H]3CC[C@H](NCc4ccc5c(c4)OCCO5)CC3)c2n1 [Example 5, fumarate salt]"
assay_result = "≤ 4 µg/mL"


Please give MIC, item by item, for the list that follows.
1. NCCCOc1ccc2nccc(NC(=O)[C@H]3CC[C@H](NCc4ccc5c(c4)OCCO5)CC3)c2n1 [Example 29, dioxalate]
2. COc1ccc2nccc(NC(=O)[C@H]3CC[C@H](NCc4cc5cccnc5[nH]4)CC3)c2n1 [Example 3, fumarate salt]
3. COc1ccc2nccc(NC(=O)[C@H]3CC[C@H](NCc4cnc5c(c4)NC(=O)CS5)CC3)c2n1 [Example 13, oxalate salt]
4. COc1ccc2nccc(NC(=O)[C@H]3CC[C@H](NCc4cc5c(cn4)OCCO5)CC3)c2n1 [Example 19, oxalate salt]
5. COc1ccc2nccc(NC(=O)[C@H]3CC[C@H](NCc4ccc5scnc5c4)CC3)c2n1 [Example 25, oxalate salt]
6. COc1ccc2nccc(NC(=O)[C@H]3CC[C@H](NCc4cc5cccc(O)c5c(=O)[nH]4)CC3)c2n1 [Example 17, dihydrochloride salt]
7. COc1ccc2nccc(NC(=O)[C@H]3CC[C@H](NCc4ccc5nsnc5c4)CC3)c2n1 [Example 2, fumarate salt]
8. COc1ccc2nccc(NC(=O)C3=CCC(NCc4cc5c(cc4F)OCC(=O)N5)CC3)c2n1 (racemic) [Example 154, oxalate]

1: ≤ 16 µg/mL; 2: ≤ 4 µg/mL; 3: ≤ 4 µg/mL; 4: ≤ 4 µg/mL; 5: ≤ 64 µg/mL; 6: ≤ 16 µg/mL; 7: ≤ 4 µg/mL; 8: ≤ 4 µg/mL

For every listed record, write down its MIC.
1. COc1ccc2nccc(NC(=O)[C@H]3CC[C@H](NCc4cc(=O)n5ccccc5n4)CC3)c2n1 [Example 26, oxalate salt]
2. COc1cc(F)c2nccc(NC(=O)[C@H]3CC[C@H](NCc4ccc5c(c4)NC(=O)CS5)CC3)c2c1 [Example 30]
3. COc1ccc2nccc(NC(=O)[C@H]3CC[C@H](NCc4ccc5c(c4)oc(=O)n5C)CC3)c2n1 [Example 7, oxalate salt]
4. COc1ccc2nccc(NC(=O)C3=CCC(NCc4ccc5c(c4)NC(=O)CS5)CC3)c2n1 (racemic) [Example 150, oxalate]
5. COc1ccc2nccc(NC(=O)[C@H]3CC[C@H](NCc4ccc5snnc5c4)CC3)c2n1 [Example 6, fumarate salt]
6. COc1ccc2nccc(NC(=O)[C@H]3CC[C@H](NCc4ccc5c(c4)NCCO5)CC3)c2n1 [Example 15, oxalate salt]

1. ≤ 16 µg/mL
2. ≤ 4 µg/mL
3. ≤ 64 µg/mL
4. ≤ 4 µg/mL
5. ≤ 4 µg/mL
6. ≤ 16 µg/mL

For each of the molecules below, note its MIC.
1. COc1ccc2nccc(C(=O)C[C@H]3CC[C@H](NCc4ccc5c(c4)OCCO5)CC3)c2c1 [Example 27, oxalate salt]
2. COc1ccc2nccc(NC(=O)[C@H]3CC[C@H](NCc4cnc5c(c4)OCCO5)CC3)c2n1 [Example 20, oxalate salt]
3. COc1ccc2nccc(NC(=O)[C@H]3CC[C@H](NCc4cnc5c(c4)NC(=O)CS5)CC3)c2c1 [Example 14, oxalate salt]

1: ≤ 64 µg/mL; 2: ≤ 4 µg/mL; 3: ≤ 16 µg/mL
